Recorded values, source ChEMBL document CHEMBL1146192.

Assay: Volume of distribution in Sprague-Dawley rat at 2.5 mg/kg, iv and 10 mg/kg, po
Type: ADME, organism-based
Settings: in vivo, read-out: Vdss
measure-name: Vd (L/kg)

input_smiles=CN(C)[C@@H]1CCN(c2ccc(-c3coc4cc(-c5ccc(Cl)cc5)ccc4c3=O)cn2)C1.Cl measure_name=Vd readout_unit=L/kg value_reported=58

###

Experiment: Ratio of drug level in Sprague-Dawley rat brain against plasma at 2.5 mg/kg, iv and 10 mg/kg, po after 1 hr
Format: ADME, organism-based
Conditions: read-out: BPR
measure-name: Kp at 1 h

input_smiles=CN(C)[C@@H]1CCN(c2ccc(-c3coc4cc(-c5ccc(Cl)cc5)ccc4c3=O)cn2)C1.Cl measure_name="Kp at 1 h" value_reported=9.5

###

Experiment: AUC in Sprague-Dawley rat at 10 mg/kg, po
Format: ADME, organism-based
Parameters: dose 10 mg/kg, route oral
Settings: plasma
measure-name: AUC (ng·h/mL)

input_smiles=CN(C)[C@@H]1CCN(c2ccc(-c3coc4cc(-c5ccc(Cl)cc5)ccc4c3=O)cn2)C1.Cl readout_unit=ng·h/mL value_reported=859
